molecular target: von Hippel-Lindau disease tumor suppressor/Bromodomain-containing protein 4 (Homo sapiens, UniProt O60885+P40337); assay: PROTAC activity at BRD4/VHL E3 ligase in human MDA-MB-231 cells assessed as decrease in BRD4 expression incubated for 48 hrs by Western blot analysis; assay type: cell-based
Sequence (P40337 whole entry, looked up, other chains not shown): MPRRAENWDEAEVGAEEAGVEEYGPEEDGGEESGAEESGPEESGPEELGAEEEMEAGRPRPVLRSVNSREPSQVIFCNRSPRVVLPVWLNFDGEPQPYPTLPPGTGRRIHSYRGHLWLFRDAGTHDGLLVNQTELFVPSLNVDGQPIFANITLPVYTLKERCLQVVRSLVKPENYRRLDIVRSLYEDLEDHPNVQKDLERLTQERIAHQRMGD
Property: EC50 (nM)
Please give a number only; it is taken to be in nM.

Read the entry Cc1ncsc1-c1ccc([C@H](C)NC(=O)[C@@H]2C[C@@H](O)CN2C(=O)[C@@H](NC(=O)COCCOCCOCCNC(=O)CC2N=C(c3ccc(Cl)cc3)c3c(sc(C)c3C)-n3c(C)nnc32)C(C)(C)C)cc1 (stereo partly specified) and write its reported EC50.
3.96

----------
test system: T47D; assay: Cytotoxicity against human T47D cells assessed as inhbition of cell growth measured after 48 hrs by CCK-8 method; assay type: functional, cell-based
IC50 listing for selected compounds.
Please give a number only; it is taken to be in nM.

Compound	IC50 [nM]
CC1=CC(C)=[N+]2C1=C(c1cccc(-c3nnc(C)nn3)c1)c1c(C)cc(C)n1[B-]2(F)F	1760

Now look at this one.
Read the entry Cc1ncsc1-c1ccc([C@H](C)NC(=O)[C@@H]2C[C@@H](O)CN2C(=O)[C@@H](NC(=O)COCCOCCOCCNC(=O)CC2N=C(c3ccc(Cl)cc3)c3c(sc(C)c3C)-n3c(C)nnc32)C(C)(C)C)cc1 (some centres not stated) and write its reported IC50.
253

----------
target: von Hippel-Lindau disease tumor suppressor/Bromodomain-containing protein 4 (Homo sapiens, UniProt O60885+P40337); experiment: PROTAC activity at BRD4/VHL E3 ligase in human MCF7 cells assessed as decrease in BRD4 expression incubated for 48 hrs by Western blot analysis; format: cell-based
Property: EC50 (nM)
Please give a number only; it is taken to be in nM.

Read the entry Cc1ncsc1-c1ccc([C@H](C)NC(=O)[C@@H]2C[C@@H](O)CN2C(=O)[C@@H](NC(=O)COCCOCCOCCNC(=O)CC2N=C(c3ccc(Cl)cc3)c3c(sc(C)c3C)-n3c(C)nnc32)C(C)(C)C)cc1 (stereo partly specified) and write its reported EC50.
50.3

Entry source: ChEMBL document CHEMBL5370648
